Test system: KM12 colon
Assay: NCI-60 one-dose screen, 48 h
Settings: 10 µM unless noted
Experimental: Growth inhibition of the KM12 human tumor cell line is measured as a screen for anti-cancer activity. Cells are grown in 96 well plates and exposed to the test compound for 48 hours. Compounds are tested at a single concentration, which is 10^-5 M for most compounds. The reported endpoint is percent growth (GI% or GIPRCNT), where numbers from 0 - 100% represent growth inhibition, and numbers from -100% - 0 represent cell death. For example, a value of 40 represents 60% growth inhibition. […]
About 83,000 compounds went through this panel and 20% of them were active in at least one assay; those are over-represented in the sample as a whole. Calls of active or inactive are those of the source. How the source made its calls: active means growth percent below 10; inactive means the rest.
Write down the outcome that applies. Available outcomes: T for active, F for inactive

Please share the test call associated with CC(C)OC(=O)OCOP(=O)(OCOC(=O)OC(C)C)C1CCCN(O)C1=O (centres undefined) .
T

Please share the test call associated with CC(/C=N/NC(=O)c1cc(-c2ccco2)[nH]n1)=C\c1ccccc1 .
F

Please share the test call associated with COc1cc(/C=C/C(=O)c2ccc(Nc3nc(Nc4ccccc4)nc(Nc4ccc(Cl)cc4)n3)cc2)cc(OC)c1OC .
F

Please share the test call associated with CSc1ccc(Cl)c(C(=O)Nc2sccc2C(N)=O)c1 .
F

Please share the test call associated with CCOC(=O)c1ccc(-c2ccc3cc(OC)ccc3c2)nc1C .
F

Please share the test call associated with CN(CCCCCCCCNc1ccnc2ccccc12)Cc1ccc(-c2ccc(-c3ccc(C#N)cc3)s2)cc1 .
T

Please share the test call associated with C=C(C)[C@@H]1CC[C@]2(CO)CC[C@]3(C)[C@H](CC[C@@H]4[C@@]5(C)C=C(C#N)C(=O)C(C)(C)[C@@H]5CC[C@]43C)[C@@H]12 .
T

Please share the test call associated with CCOC(=O)c1cnn2c(-c3ccc(Cl)cc3)nc(NCc3ccccc3)nc12 .
F

Please share the test call associated with CN1CCC(=C2c3ccccc3C=Cc3ccccc32)CC1 .
F
